Numbers sourced from paper PMC8519022.

TARGET_OR_SYSTEM: UniProt P00760
*1 amine or outer side, *2 acyl side, *3 side chain or, on linkers, in order; H or OH if unused. Where a SMILES comes first, the peptide text is derived from it. Bridges are numbered along the chain shown (N, C = ends). X1 = Cc1sc(C(=O)[C@@H]2CCCN2[*:2])cc1C1=C(c2cc(C(=O)[*:1])sc2C)CCC1
READOUT_LABEL: k H (closed) /k H (open)
I'd appreciate a reply containing only the number, no unit.

Lab note: record k H (closed) /k H (open) of CC[C@H](C)[C@@H]1NC(=O)[C@@H]2CCCN2C(=O)[C@@H]2CCCN2C(=O)[C@H]([C@@H](C)CC)NC(=O)[C@H](CO)NC(=O)[C@H](CCCCN)NC(=O)[C@H]([C@@H](C)O)NC(=O)[C@@H]2CSSC[C@H](NC1=O)C(=O)N[C@@H](Cc1ccccc1)C(=O)N1CCC[C@H]1C(=O)c1cc(c(C)s1)C1=C(CCC1)c1cc(sc1C)C(=O)N[C@@H](C(C)C)C(=O)N[C@@H](CCCNC(=N)N)C(=O)N2 [Peptide S8n] (VRCTKSIPPICF; disulfide 3-11; linker N-C via X1) tested on UniProt P00760.
4.1

====

TARGET_OR_SYSTEM: Bos taurus trypsin 1 (T1) (Bos taurus)
Sequence (P00760 24-246): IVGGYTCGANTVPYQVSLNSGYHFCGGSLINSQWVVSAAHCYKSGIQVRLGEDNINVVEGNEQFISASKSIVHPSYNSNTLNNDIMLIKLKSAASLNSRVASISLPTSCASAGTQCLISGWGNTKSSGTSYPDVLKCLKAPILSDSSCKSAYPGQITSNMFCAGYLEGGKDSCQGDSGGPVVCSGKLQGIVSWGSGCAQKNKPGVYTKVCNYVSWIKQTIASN
ASSAY_PROTOCOL: Trypsin inhibition, Ki by Lineweaver-Burk analysis;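 also: trypsin activity followed by spectrophotometric hydrolysis kinetics of the chromogenic substrate BAPNA in Tris buffer, Ki obtained from double-reciprocal Lineweaver–Burk plots at several substrate concentrations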
RUN_CONDITIONS: K i [nM] (closed)
*1 amine or outer side, *2 acyl side, *3 side chain or, on linkers, in order; H or OH if unused. Where a SMILES comes first, the peptide text is derived from it. Bridges are numbered along the chain shown (N, C = ends). Triazole bridges read from a SMILES are 1,4-linked. [ ]: non-standard residue; d: D form. X1 = Cc1sc(C(=O)[C@@H]2CCCN2[*:2])cc1C1=C(c2cc(C(=O)[*:1])sc2C)CCC1; Orn(N3) = [N-]=[N+]=NCCC[C@H](N)C(=O)O; hCys = N[C@@H](CCS)C(=O)O; Pra = C#CC[C@H](N)C(=O)O
Recorded measurements of Ki, one per entry
Note to self: number, then unit, no commentary.

Consider the reported Ki for these compounds:
COMPOUND	READOUT_LABEL	ASSAY_VALUE
CC[C@H](C)[C@@H]1NC(=O)[C@@H]2CCCN2C(=O)[C@@H]2CCCN2C(=O)[C@H]([C@@H](C)CC)NC(=O)[C@H](CO)NC(=O)[C@H](CCCCN)NC(=O)[C@H]([C@@H](C)O)NC(=O)[C@@H]2Cc3cn(nn3)CCC[C@H](NC1=O)C(=O)N[C@@H](Cc1ccccc1)C(=O)N1CCC[C@H]1C(=O)c1cc(c(C)s1)C1=C(CCC1)c1cc(sc1C)C(=O)N[C@@H](CCCNC(=N)N)C(=O)N2 [Peptide S7n] (R[Pra]TKSIPPI[Orn(N3)]F; triazole 2-10; linker N-C via X1)	Ki	2200 nM
CC[C@H](C)[C@@H]1NC(=O)[C@@H]2CCCN2C(=O)[C@@H]2CCCN2C(=O)[C@H]([C@@H](C)CC)NC(=O)[C@H](CO)NC(=O)[C@H](CCCCN)NC(=O)[C@H]([C@@H](C)O)NC(=O)[C@H](C)NC(=O)[C@H](CCCNC(=N)N)NC(=O)c2cc(c(C)s2)C2=C(CCC2)c2cc(sc2C)C(=O)[C@@H]2CCCN2C(=O)[C@H](Cc2ccccc2)NC(=O)[C@H](C)NC1=O [Peptide S2] (RATKSIPPIAF; linker N-C via X1)	Ki	659 nM
CC[C@H](C)[C@@H]1NC(=O)[C@@H]2CCCN2C(=O)[C@@H]2CCCN2C(=O)[C@H]([C@@H](C)CC)NC(=O)[C@H](CO)NC(=O)[C@H](CCCCN)NC(=O)[C@H]([C@@H](C)O)NC(=O)[C@@H]2Cc3cn(nn3)CCC[C@H](NC1=O)C(=O)N[C@@H](CCCNC(=N)N)C(=O)N1CCC[C@H]1C(=O)c1cc(c(C)s1)C1=C(CCC1)c1cc(sc1C)C(=O)N[C@@H](Cc1ccccc1)C(=O)N2 [Peptide S7i] (F[Pra]TKSIPPI[Orn(N3)]R; triazole 2-10; linker N-C via X1)	Ki	7220 nM

Quote Ki reported for CC[C@H](C)[C@@H]1NC(=O)[C@@H]2CCCN2C(=O)[C@@H]2CCCN2C(=O)[C@H]([C@@H](C)CC)NC(=O)[C@H](CO)NC(=O)[C@H](CCCCN)NC(=O)[C@H]([C@@H](C)O)NC(=O)[C@@H]2CSSCC[C@H](NC1=O)C(=O)N[C@@H](CCCNC(=N)N)C(=O)N1CCC[C@H]1C(=O)c1cc(c(C)s1)C1=C(CCC1)c1cc(sc1C)C(=O)N[C@@H](Cc1ccccc1)C(=O)N2 [Peptide S5i] (FCTKSIPPI[hCys]R; disulfide 2-10; linker N-C via X1) please.
182 nM

Quote Ki reported for CC[C@H](C)[C@@H]1NC(=O)[C@@H]2CCCN2C(=O)[C@@H]2CCCN2C(=O)[C@H]([C@@H](C)CC)NC(=O)[C@H](CO)NC(=O)[C@H](CCCCN)NC(=O)[C@H]([C@@H](C)O)NC(=O)[C@@H]2CSSC[C@H](NC1=O)C(=O)N[C@@H](Cc1ccccc1)C(=O)N[C@@H](CC(C)C)C(=O)N1CCC[C@H]1C(=O)c1cc(c(C)s1)C1=C(CCC1)c1cc(sc1C)C(=O)N[C@@H](CCCNC(=N)N)C(=O)N2 [Peptide S9n] (RCTKSIPPICFL; disulfide 2-10; linker N-C via X1) please.
55 nM
